Measured Z-AUC accompanies every entry in the list below.
test: qHTS drug screen for cell cycle checkpoint inhibitors in PARPi-resistant BRCA-mutant ovarian cancer cell lines. (AID 1963452); conditions: PEO1/OlaR viability, CellTiter-Glo luminescence, 96 h; measured here: PEO1 parental Z-AUC; stronger effect = lower value
Could you keep your reply to the number by itself?

The examples below pair each entry with its known result.
>>> print(df.to_string())
                               query_smiles  recorded_value
0  COc1c(C)c2c(c(O)c1C/C=C(\C)CCC(=O)OCCN1CCOCC1)C(=O)OC2           0.614
1             O=[N+]([O-])c1cncn1CCN1CCOCC1            1.34
2  CCN(CC)CCOc1ccc(/C(=C(\Cl)c2ccccc2)c2ccccc2)cc1           -0.39
3  O=C1NC(=O)/C(=C/c2ccc3c(c2)OC(F)(F)O3)S1          -0.173

Value of measured Z-AUC for the entry CC1(C)O[C@@H]2C[C@H]3[C@@H]4CCC5=CC(=O)C=C[C@]5(C)[C@@]4(F)[C@@H](O)C[C@]3(C)[C@]2(C(=O)CO)O1 : 1.66

Reported Z-AUC for O=C(O)[C@H](O)[C@@H](O)[C@H](O[C@@H]1O[C@H](CO)[C@H](O)[C@H](O)[C@H]1O)[C@H](O)CO was 1.15
